// reported 5-HT1A [%] per item
target: 5-HT1A receptor (rat hippocampus) (Rattus norvegicus); construct: hippocampus; from tissue; host or cells: rat hippocampus; assay: Radioligand binding assay, serotoninergic 5-HT1A receptors; conditions: binding assay result in %, Table 5a;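 note: test compound at 1 µM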
Sequence (P19327 whole entry): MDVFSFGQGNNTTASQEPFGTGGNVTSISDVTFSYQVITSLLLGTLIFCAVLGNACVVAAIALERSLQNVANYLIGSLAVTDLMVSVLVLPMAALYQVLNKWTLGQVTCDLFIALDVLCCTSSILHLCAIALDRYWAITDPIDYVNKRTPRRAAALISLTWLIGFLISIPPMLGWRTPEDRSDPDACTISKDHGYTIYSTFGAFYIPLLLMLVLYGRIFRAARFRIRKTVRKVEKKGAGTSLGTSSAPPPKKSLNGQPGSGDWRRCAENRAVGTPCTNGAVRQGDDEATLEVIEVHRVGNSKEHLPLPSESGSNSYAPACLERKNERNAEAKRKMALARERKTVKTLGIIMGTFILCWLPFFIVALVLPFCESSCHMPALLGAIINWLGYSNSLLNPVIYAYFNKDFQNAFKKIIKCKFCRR
endpoint: 5-HT1A [%] (%)

1) O=S(=O)(NC1CCN(CCOc2cccc3c2OCCO3)CC1)c1ccccc1 : 76
2) Cc1cccc(S(=O)(=O)NCC2CCN(CCCc3noc4cc(F)ccc34)CC2)c1 : 18
3) O=S(=O)(NC1CCN(CCOc2cccc3c2OCCO3)C1)c1cccc2ccccc12 (centres unmarked) : 92
4) O=S(=O)(NC1CN(CCOc2cccc3c2OCCO3)C1)c1ccccc1 : 96
5) O=S(=O)(NC1CN(CCOc2cccc3c2OCCO3)C1)c1ccc2ccccc2c1 : 94
6) Cc1cccc(S(=O)(=O)NC2CN(CCOc3cccc4c3OCCO4)C2)c1 : 98
7) CC1(C)Cc2cccc(OCCN3CCC(NS(=O)(=O)c4cccc(O)c4)CC3)c2O1 : 96
8) O=S(=O)(NC1CN(CCOc2cccc3c2OCCO3)C1)c1ccc(Cl)cc1 : 100
9) O=S(=O)(NC1CCN(CCOc2cccc3c2OCCO3)C1)c1ccc2ccccc2c1 (centres unmarked) : 96
10) O=S(=O)(NC1CCN(CCOc2cccc3ccccc23)CC1)c1ccc2ccccc2c1 : 8
11) O=S(=O)(NCC1CCN(CCOc2cccc3[nH]ccc23)CC1)c1ccc2ccccc2c1 : 76
12) O=S(=O)(NC1CCN(CCOc2cccc3c2OCCO3)C1)c1ccccc1 (centres unmarked) : 92
13) O=S(=O)(NC1CCN(CCCc2noc3cc(F)ccc23)CC1)c1ccc2ccccc2c1 : 28
14) O=S(=O)(NCC1CN(CCCc2noc3cc(F)ccc23)C1)c1cc2ccccc2s1 : 71
15) O=S(=O)(NC1CCN(CCCc2noc3cc(F)ccc23)CC1)c1ccccc1 : 37
16) Cc1cccc(S(=O)(=O)NC2CCN(CCOc3cccc4c3OCCO4)C2)c1 (centres unmarked) : 84
17) O=S(=O)(NC1CCN(CCOc2cccc3c2OCCO3)CC1)c1cccc2ccccc12 : 94
18) O=S(=O)(NC1CN(CCOc2cccc3c2OCCO3)C1)c1ccc(F)cc1 : 82
19) O=S(=O)(NC1CCN(CCOc2cccc3[nH]ccc23)CC1)c1ccc2ccccc2c1 : 77
20) O=S(=O)(NC1CN(CCOc2cccc3c2OCCO3)C1)c1cccc(Cl)c1 : 88
21) O=S(=O)(NC1CCN(CCOc2cccc3[nH]ccc23)CC1)c1ccccc1 : 96
22) Cc1cccc(S(=O)(=O)NC2CCN(CCOc3cccc4c3OCCO4)CC2)c1 : 85
23) O=S(=O)(NCC1CCN(CCCc2noc3cc(F)ccc23)CC1)c1cccc2ccccc12 : 29
24) O=S(=O)(NCC1CCN(CCOc2ccc3cc[nH]c3c2)CC1)c1cccc2ccccc12 : 28
25) CC1(C)Cc2cccc(OCCN3CCC(NS(=O)(=O)c4ccc5ccccc5c4)CC3)c2O1 : 95
26) O=S(=O)(NC1CN(CCOc2cccc3c2OCCO3)C1)c1cccc(F)c1 : 98

---

system: α1 adrenergic receptors (rat cerebral cortex); assay: Radioligand binding assay, adrenergic α1 receptors; conditions: test compound 1×10^−6 M
// reported α1 [%] per item
endpoint: α1 [%] (%)

1. O=S(=O)(NC1CCN(CCCc2c[nH]c3ccc(F)cc23)C1)c1cccc2ccccc12 (stereo not drawn) : 37
2. Cc1c(S(=O)(=O)NCC2CCN(CCOc3cccc4ccccc34)C2)sc2ccc(Cl)cc12 (stereo not drawn) : −7
3. O=S(=O)(NCC1CCN(CCOc2cccc3c2OCCO3)C1)c1ccc2scnc2c1 (stereo not drawn) : 69
4. Cc1cccc(S(=O)(=O)NC2CCN(CCCc3c[nH]c4ccc(F)cc34)C2)c1 (stereo not drawn) : 39
5. O=S(=O)(NCC1CCN(CCOc2cccc3c2OCCO3)C1)c1ccc2c(c1)CCO2 (stereo not drawn) : 90
6. CC1(C)Cc2cccc(OCCN3CCC(NS(=O)(=O)c4cccc(O)c4)CC3)c2O1 : 44
7. O=S(=O)(NC1CN(CCOc2cccc3c2OCCO3)C1)c1cccc(F)c1 : 45
8. O=S(=O)(NCC1CN(CCCc2noc3cc(F)ccc23)C1)c1ccc2ccccc2c1 : 61
9. Cn1ccc2cc(S(=O)(=O)NCC3CN(CCOc4cccc5c4OCCO5)C3)ccc21 : 88
10. Cc1c(S(=O)(=O)NCC2CN(CCOc3cccc4ccccc34)C2)sc2ccc(F)cc12 : 23
11. O=S(=O)(NCC1CCN(CCCc2noc3cc(F)ccc23)CC1)c1cccc2ccccc12 : 96
12. CC1(C)Cc2cccc(OCCN3CCC(CNS(=O)(=O)c4cccc(O)c4)C3)c2O1 (stereo not drawn) : 55
13. O=S(=O)(NC1CCN(CCCc2noc3cc(F)ccc23)CC1)c1ccc(-c2ccccc2)cc1 : 81
14. O=S(=O)(NC1CCN(CCOc2cccc3c2OCCO3)C1)c1cccc2ccccc12 (stereo not drawn) : 78
15. Cc1c(S(=O)(=O)N[C@@H]2CCN(CCCc3noc4cc(F)ccc34)C2)sc2ccc(F)cc12 : 98
16. O=S(=O)(NC1CN(CCOc2cccc3c2OCCO3)C1)c1ccc2ccccc2c1 : −21
17. O=S(=O)(NC1CCN(CCCc2noc3cc(F)ccc23)C1)c1cccc(O)c1 (stereo not drawn) : 98
18. O=S(=O)(NC1CCN(CCCc2noc3cc(F)ccc23)C1)c1ccc2c(c1)OCC2 (stereo not drawn) : 101
19. CC1(C)Cc2cccc(OCCN3CCC(NS(=O)(=O)c4cccc(O)c4)C3)c2O1 (stereo not drawn) : 28
20. O=S(=O)(NC1CN(CCOc2cccc3[nH]ccc23)C1)c1ccc2ccccc2c1 : 88
21. O=S(=O)(NCC1CCN(CCOc2cccc3[nH]ccc23)CC1)c1ccc2ccccc2c1 : 91
22. O=S(=O)(NC1CCN(CCCc2noc3cc(F)ccc23)C1)c1cc2ccccc2o1 (stereo not drawn) : 84
23. Cc1cccc(S(=O)(=O)NC2CCN(CCOc3cccc4c3OCCO4)CC2)c1 : 72
24. O=S(=O)(NCC1CN(CCCc2c[nH]c3ccc(Cl)cc23)C1)c1ccc2ccccc2c1 : 46
25. O=S(=O)(NCC1CCN(CCOc2ccc3cc[nH]c3c2)CC1)c1cccc2ccccc12 : 36
26. O=S(=O)(NC1CCN(CCOc2cccc3[nH]ccc23)CC1)c1ccccc1 : 51
27. O=S(=O)(NC1CCN(CCOc2cccc3ccccc23)CC1)c1cccc(O)c1 : 78
28. O=S(=O)(N[C@@H]1CCN(CCCc2noc3cc(F)ccc23)C1)c1csc2ccccc12 : 89
29. O=S(=O)(NC1CN(CCOc2cccc3[nH]ccc23)C1)c1cccc2ccccc12 : 89
30. O=S(=O)(NCC1CN(CCOc2cccc3ccccc23)C1)c1cc2ccc(Cl)cc2s1 : 13
31. O=S(=O)(NCC1CCN(CCOc2cccc3ccccc23)C1)c1cc2ccccc2s1 (stereo not drawn) : 9
32. O=S(=O)(NCC1CN(CCOc2cccc3ccccc23)C1)c1ccc(F)c(F)c1 : 56
33. O=S(=O)(NCC1CCN(CCOc2cccc3c2OCCO3)C1)c1ccc(C(F)(F)F)cc1 (stereo not drawn) : 77

---

// reported 5-HT6 ag [%] per item
target: 5-HT6 serotoninergic receptors (Homo sapiens); assay: Cellular functional assay, 5-HT6 serotoninergic receptors; format: cell-based; conditions: agonist mode; percent of control specific agonist response
Sequence (P50406 whole entry): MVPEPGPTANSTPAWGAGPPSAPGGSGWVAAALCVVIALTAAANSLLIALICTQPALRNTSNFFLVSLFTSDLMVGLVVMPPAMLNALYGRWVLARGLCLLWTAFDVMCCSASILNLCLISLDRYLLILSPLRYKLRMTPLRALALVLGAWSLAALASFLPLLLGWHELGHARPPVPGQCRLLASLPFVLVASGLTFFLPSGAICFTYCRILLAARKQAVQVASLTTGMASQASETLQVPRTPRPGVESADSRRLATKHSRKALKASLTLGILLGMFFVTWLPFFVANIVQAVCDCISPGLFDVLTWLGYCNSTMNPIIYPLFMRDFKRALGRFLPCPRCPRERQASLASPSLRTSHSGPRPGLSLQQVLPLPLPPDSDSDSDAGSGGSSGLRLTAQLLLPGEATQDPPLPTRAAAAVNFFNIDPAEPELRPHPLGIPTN
endpoint: 5-HT6 ag [%] (%)

1) Cc1c(S(=O)(=O)NCC2CN(CCCc3noc4cc(F)ccc34)C2)sc2ccc(Cl)cc12 : 3
2) COc1ccc2cc(S(=O)(=O)NC3CCN(CCCc4noc5cc(F)ccc45)C3)ccc2c1 (stereo not shown) : −4
3) Cc1cc(S(=O)(=O)N[C@@H]2CCN(CCCc3noc4cc(F)ccc34)C2)c(C)s1 : −1
4) Cc1c(S(=O)(=O)N[C@H]2CCN(CCCc3noc4cc(F)ccc34)C2)sc2ccc(F)cc12 : −2

---

molecular target: 5-HT2C receptor (Homo sapiens); construct: expressed in transfected cells; host or cells: HEK-293 cells; test: Radioligand binding assay, serotoninergic 5-HT2C receptors; conditions: test compound 1×10^−6 M
Sequence (P28335 33-458): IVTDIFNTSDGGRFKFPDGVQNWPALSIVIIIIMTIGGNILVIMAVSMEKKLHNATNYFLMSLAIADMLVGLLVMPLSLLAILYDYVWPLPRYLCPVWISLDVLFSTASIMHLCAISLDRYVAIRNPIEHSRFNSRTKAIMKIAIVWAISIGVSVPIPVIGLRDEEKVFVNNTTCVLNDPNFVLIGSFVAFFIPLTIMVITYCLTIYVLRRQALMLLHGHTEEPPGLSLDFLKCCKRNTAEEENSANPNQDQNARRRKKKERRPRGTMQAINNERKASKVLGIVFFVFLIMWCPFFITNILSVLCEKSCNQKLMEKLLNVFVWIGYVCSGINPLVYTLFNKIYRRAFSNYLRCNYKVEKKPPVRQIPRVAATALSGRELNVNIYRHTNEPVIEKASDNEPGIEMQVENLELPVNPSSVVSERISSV
Short version: inhibition at 1 µM at least 60% is Y, less is N.

1. O=S(=O)(NC1CCN(CCCc2noc3cc(F)ccc23)CC1)c1cccc2ccccc12 : Y
2. O=S(=O)(NC1CCN(CCCc2c[nH]c3ccc(Cl)cc23)C1)c1cccc(F)c1 (centres unmarked) : Y
3. O=S(=O)(N[C@@H]1CCN(CCCc2noc3cc(F)ccc23)C1)c1cc2ccccc2o1 : Y
4. O=S(=O)(N[C@H]1CCN(CCCc2noc3cc(F)ccc23)C1)c1cc2ccc(Cl)cc2s1 : Y
5. O=S(=O)(NCC1CCN(CCOc2cccc3c2OCCO3)C1)c1ccc(C(F)(F)F)cc1 (centres unmarked) : N
6. O=S(=O)(NCC1CCN(CCOc2cccc3c2OCCO3)C1)c1cccc(F)c1 (centres unmarked) : N
7. O=S(=O)(NCC1CCN(CCOc2cccc3c2OCCO3)C1)c1ccc(F)cc1 (centres unmarked) : N
